Test system: HCC-366
Experiment summary: relative viability (nuclei count vs DMSO), 5 days (fraction); higher = more cells survive
Conditions used: first compound 0.08 µM
Lab note: anything with relative viability below 0.4 is marked yes; values at 0.4 or higher are marked no.

compound="Cc1cnc(-c2cnc(NCCNc3ccc(C#N)cn3)nc2-c2ccc(Cl)cc2Cl)[nH]1 + O=C(c1cc(Cc2n[nH]c(=O)c3ccccc23)ccc1F)N1CCN(C(=O)C2CC2)CC1 [Olaparib] (partner 8 µM)" answer_label=yes
compound="Cc1cnc(-c2cnc(NCCNc3ccc(C#N)cn3)nc2-c2ccc(Cl)cc2Cl)[nH]1 + CC(C)C[C@H](NC(=O)[C@H](Cc1ccccc1)NC(=O)c1cnccn1)B(O)O [Bortezomib] (partner 0.002 µM)" answer_label=no
compound="Cc1cnc(-c2cnc(NCCNc3ccc(C#N)cn3)nc2-c2ccc(Cl)cc2Cl)[nH]1 + CC1(C)CCC(c2ccc(Cl)cc2)=C(CN2CCN(c3ccc(C(=O)NS(=O)(=O)c4ccc(N[C@H](CCN5CCOCC5)CSc5ccccc5)c(S(=O)(=O)C(F)(F)F)c4)cc3)CC2)C1 [Navitoclax] (partner 0.5 µM)" answer_label=no
compound="Cc1cnc(-c2cnc(NCCNc3ccc(C#N)cn3)nc2-c2ccc(Cl)cc2Cl)[nH]1 + CS(=O)(=O)CCNCc1ccc(-c2ccc3ncnc(Nc4ccc(OCc5cccc(F)c5)c(Cl)c4)c3c2)o1 [Lapatinib] (partner 2 µM)" answer_label=no
compound="Cc1cnc(-c2cnc(NCCNc3ccc(C#N)cn3)nc2-c2ccc(Cl)cc2Cl)[nH]1 + Cc1nc(NC(=O)N2CCC[C@H]2C(N)=O)sc1-c1ccnc(C(C)(C)C(F)(F)F)c1 [Alpelisib] (partner 2 µM)" answer_label=yes
compound="O=c1[nH]c2ccccc2n1C1CCN(CCCC(c2ccc(F)cc2)c2ccc(F)cc2)CC1 [Pimozide] + Nc1ncn([C@H]2C[C@H](O)[C@@H](CO)O2)c(=O)n1 [Decitabine] (partner 2 µM)" answer_label=yes
compound="O=c1[nH]c2ccccc2n1C1CCN(CCCC(c2ccc(F)cc2)c2ccc(F)cc2)CC1 [Pimozide] + O=C(c1cc(Cc2n[nH]c(=O)c3ccccc23)ccc1F)N1CCN(C(=O)C2CC2)CC1 [Olaparib] (partner 8 µM)" answer_label=yes
compound="Cc1cnc(-c2cnc(NCCNc3ccc(C#N)cn3)nc2-c2ccc(Cl)cc2Cl)[nH]1 + COc1cc2c(Oc3ccc(NC(=O)C4(C(=O)Nc5ccc(F)cc5)CC4)cc3F)ccnc2cc1OCCCN1CCOCC1 [Foretinib] (partner 0.25 µM)" answer_label=no
compound="O=c1[nH]c2ccccc2n1C1CCN(CCCC(c2ccc(F)cc2)c2ccc(F)cc2)CC1 [Pimozide] + C[C@@H](Oc1cc(-c2cnn(C3CCNCC3)c2)cnc1N)c1c(Cl)ccc(F)c1Cl [Crizotinib] (partner 1 µM)" answer_label=no
compound="O=c1[nH]c2ccccc2n1C1CCN(CCCC(c2ccc(F)cc2)c2ccc(F)cc2)CC1 [Pimozide] + CC(C)C[C@H](NC(=O)[C@H](Cc1ccccc1)NC(=O)c1cnccn1)B(O)O [Bortezomib] (partner 0.002 µM)" answer_label=no
compound="Cc1cnc(-c2cnc(NCCNc3ccc(C#N)cn3)nc2-c2ccc(Cl)cc2Cl)[nH]1 + C[C@]1(O)C[C@@H](c2nc(-c3ccc4ccc(-c5ccccc5)nc4c3)c3c(N)nccn32)C1 [Linsitinib] (partner 1 µM)" answer_label=no
compound="Cc1cnc(-c2cnc(NCCNc3ccc(C#N)cn3)nc2-c2ccc(Cl)cc2Cl)[nH]1 + COc1cccc2cc(-c3nc([C@H]4CC[C@H](C(=O)O)CC4)n4ncnc(N)c34)[nH]c12 [OSI-027] (partner 0.5 µM)" answer_label=no
compound="Cc1cnc(-c2cnc(NCCNc3ccc(C#N)cn3)nc2-c2ccc(Cl)cc2Cl)[nH]1 + NC(=O)Nc1cc(-c2cccc(F)c2)sc1C(=O)N[C@H]1CCCNC1 [AZD7762] (partner 0.2 µM)" answer_label=yes
compound="O=c1[nH]c2ccccc2n1C1CCN(CCCC(c2ccc(F)cc2)c2ccc(F)cc2)CC1 [Pimozide] + C[C@]1(O)C[C@@H](c2nc(-c3ccc4ccc(-c5ccccc5)nc4c3)c3c(N)nccn32)C1 [Linsitinib] (partner 1 µM)" answer_label=no
compound="O=c1[nH]c2ccccc2n1C1CCN(CCCC(c2ccc(F)cc2)c2ccc(F)cc2)CC1 [Pimozide] + N=C(N)NC(=N)NCCc1ccccc1 [Phenformin] (partner 250 µM)" answer_label=no
compound="Cc1cnc(-c2cnc(NCCNc3ccc(C#N)cn3)nc2-c2ccc(Cl)cc2Cl)[nH]1 + Nc1nc2[nH]cc(CCc3ccc(C(=O)N[C@@H](CCC(=O)O)C(=O)O)cc3)c2c(=O)[nH]1 [Pemetrexed] (partner 0.2 µM)" answer_label=yes
compound="O=c1[nH]c2ccccc2n1C1CCN(CCCC(c2ccc(F)cc2)c2ccc(F)cc2)CC1 [Pimozide] + Cc1nc(Nc2ncc(C(=O)Nc3c(C)cccc3Cl)s2)cc(N2CCN(CCO)CC2)n1 [Dasatinib] (partner 0.075 µM)" answer_label=no
